Numbers sourced from patent US20060135571A1.

- methodNotes: Aqueous solubility in saline
- Type: physicochemical
- cond: saline or isotonic, acid salt
measurementName: solubility

- CN1CCCN(CC[S+]([O-])c2nn3cc(-c4ccccc4)nc3s2)CC1 (stereo not shown) [Compound 56.2HCl]: > 100 mg/mL

---

- System: SCG neurons
- methodNotes: In vitro protection of SCG neurons from Taxol killing
- Assay type: cell-based, Sprague Dawley rats
- cond: Rattus norvegicus, Neuron, 48 h, read-out: IC50, rescue from Taxol killing of SCG neurons
measurementName: IC50 (µM)

- [O-][S+](CCN1CCC(Cc2ccccc2)CC1)c1nn2cc(-c3ccccc3)nc2s1 (stereo not shown): 10
